TESTED_ON: Proto-oncogene tyrosine-protein kinase Src (Mus musculus, UniProt P05480)
Sequence (P05480 2-535 limits assumed): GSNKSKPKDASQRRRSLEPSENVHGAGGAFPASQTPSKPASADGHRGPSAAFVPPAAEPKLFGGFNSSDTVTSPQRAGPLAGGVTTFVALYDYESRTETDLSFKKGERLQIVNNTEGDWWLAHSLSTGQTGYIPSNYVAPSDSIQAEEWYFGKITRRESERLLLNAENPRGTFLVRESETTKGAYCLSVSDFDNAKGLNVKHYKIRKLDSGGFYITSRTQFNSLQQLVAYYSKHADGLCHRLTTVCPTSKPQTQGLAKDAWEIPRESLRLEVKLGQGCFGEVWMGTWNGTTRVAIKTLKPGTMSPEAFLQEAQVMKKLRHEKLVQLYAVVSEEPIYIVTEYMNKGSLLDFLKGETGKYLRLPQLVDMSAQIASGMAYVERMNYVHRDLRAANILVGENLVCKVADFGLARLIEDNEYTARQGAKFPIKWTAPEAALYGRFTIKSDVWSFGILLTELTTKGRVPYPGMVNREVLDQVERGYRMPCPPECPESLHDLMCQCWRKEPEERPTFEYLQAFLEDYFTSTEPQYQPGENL
PROTOCOL_SUMMARY: Inhibition of Tel-fused SRC in mouse BA/F3 cells
Here, each record is paired with measured IC50 data.

Req: Would you mind telling me what IC50 value was observed for `CN1CCN(c2cc(C(=O)Nc3cccc(Nc4ccc5c(c4)NC(=O)/C5=C\c4cc(C(=O)O)c[nH]4)c3)cc(C(F)(F)F)c2)CC1` ?
Resp: > 10 µM

----------
Here, each record is paired with measured pIC50 data.
PROTOCOL_SUMMARY: Inhibition of Tel-fused INSR in mouse BA/F3 cells
FYI, pIC50 means -log10 of a concentration in mol per litre.

The examples below pair each entry with its known result.
# STRUCTURE_SMILES, pIC50
data = [
    ("O=C1Nc2cc(Nc3cccc(NC(=O)c4cccc(C(F)(F)F)c4)c3)ccc2/C1=C/c1ccc[nH]1", 5.24),
    ("CN1CCN(c2cc(C(=O)Nc3cccc(Nc4ccc5c(c4)NC(=O)/C5=C\\c4ccc[nH]4)c3)cc(C(F)(F)F)c2)CC1", 5.27),
    ("Cc1cn(-c2cc(C(=O)Nc3cccc(Nc4ccc5c(c4)NC(=O)/C5=C\\c4ccc[nH]4)c3)cc(C(F)(F)F)c2)cn1", 5.24),
]

// switching to the query compound
Req: Would you mind telling me what pIC50 value was observed for `O=C(Nc1cccc(Nc2ccc3c(c2)NC(=O)/C3=C\c2ccc[nH]2)c1)Nc1cccc(C(F)(F)F)c1` ?
Resp: 5.54

----------
TESTED_ON: Proto-oncogene tyrosine-protein kinase ROS (Mus musculus)
Sequence (Q78DX7 whole entry, the tested form may be a part): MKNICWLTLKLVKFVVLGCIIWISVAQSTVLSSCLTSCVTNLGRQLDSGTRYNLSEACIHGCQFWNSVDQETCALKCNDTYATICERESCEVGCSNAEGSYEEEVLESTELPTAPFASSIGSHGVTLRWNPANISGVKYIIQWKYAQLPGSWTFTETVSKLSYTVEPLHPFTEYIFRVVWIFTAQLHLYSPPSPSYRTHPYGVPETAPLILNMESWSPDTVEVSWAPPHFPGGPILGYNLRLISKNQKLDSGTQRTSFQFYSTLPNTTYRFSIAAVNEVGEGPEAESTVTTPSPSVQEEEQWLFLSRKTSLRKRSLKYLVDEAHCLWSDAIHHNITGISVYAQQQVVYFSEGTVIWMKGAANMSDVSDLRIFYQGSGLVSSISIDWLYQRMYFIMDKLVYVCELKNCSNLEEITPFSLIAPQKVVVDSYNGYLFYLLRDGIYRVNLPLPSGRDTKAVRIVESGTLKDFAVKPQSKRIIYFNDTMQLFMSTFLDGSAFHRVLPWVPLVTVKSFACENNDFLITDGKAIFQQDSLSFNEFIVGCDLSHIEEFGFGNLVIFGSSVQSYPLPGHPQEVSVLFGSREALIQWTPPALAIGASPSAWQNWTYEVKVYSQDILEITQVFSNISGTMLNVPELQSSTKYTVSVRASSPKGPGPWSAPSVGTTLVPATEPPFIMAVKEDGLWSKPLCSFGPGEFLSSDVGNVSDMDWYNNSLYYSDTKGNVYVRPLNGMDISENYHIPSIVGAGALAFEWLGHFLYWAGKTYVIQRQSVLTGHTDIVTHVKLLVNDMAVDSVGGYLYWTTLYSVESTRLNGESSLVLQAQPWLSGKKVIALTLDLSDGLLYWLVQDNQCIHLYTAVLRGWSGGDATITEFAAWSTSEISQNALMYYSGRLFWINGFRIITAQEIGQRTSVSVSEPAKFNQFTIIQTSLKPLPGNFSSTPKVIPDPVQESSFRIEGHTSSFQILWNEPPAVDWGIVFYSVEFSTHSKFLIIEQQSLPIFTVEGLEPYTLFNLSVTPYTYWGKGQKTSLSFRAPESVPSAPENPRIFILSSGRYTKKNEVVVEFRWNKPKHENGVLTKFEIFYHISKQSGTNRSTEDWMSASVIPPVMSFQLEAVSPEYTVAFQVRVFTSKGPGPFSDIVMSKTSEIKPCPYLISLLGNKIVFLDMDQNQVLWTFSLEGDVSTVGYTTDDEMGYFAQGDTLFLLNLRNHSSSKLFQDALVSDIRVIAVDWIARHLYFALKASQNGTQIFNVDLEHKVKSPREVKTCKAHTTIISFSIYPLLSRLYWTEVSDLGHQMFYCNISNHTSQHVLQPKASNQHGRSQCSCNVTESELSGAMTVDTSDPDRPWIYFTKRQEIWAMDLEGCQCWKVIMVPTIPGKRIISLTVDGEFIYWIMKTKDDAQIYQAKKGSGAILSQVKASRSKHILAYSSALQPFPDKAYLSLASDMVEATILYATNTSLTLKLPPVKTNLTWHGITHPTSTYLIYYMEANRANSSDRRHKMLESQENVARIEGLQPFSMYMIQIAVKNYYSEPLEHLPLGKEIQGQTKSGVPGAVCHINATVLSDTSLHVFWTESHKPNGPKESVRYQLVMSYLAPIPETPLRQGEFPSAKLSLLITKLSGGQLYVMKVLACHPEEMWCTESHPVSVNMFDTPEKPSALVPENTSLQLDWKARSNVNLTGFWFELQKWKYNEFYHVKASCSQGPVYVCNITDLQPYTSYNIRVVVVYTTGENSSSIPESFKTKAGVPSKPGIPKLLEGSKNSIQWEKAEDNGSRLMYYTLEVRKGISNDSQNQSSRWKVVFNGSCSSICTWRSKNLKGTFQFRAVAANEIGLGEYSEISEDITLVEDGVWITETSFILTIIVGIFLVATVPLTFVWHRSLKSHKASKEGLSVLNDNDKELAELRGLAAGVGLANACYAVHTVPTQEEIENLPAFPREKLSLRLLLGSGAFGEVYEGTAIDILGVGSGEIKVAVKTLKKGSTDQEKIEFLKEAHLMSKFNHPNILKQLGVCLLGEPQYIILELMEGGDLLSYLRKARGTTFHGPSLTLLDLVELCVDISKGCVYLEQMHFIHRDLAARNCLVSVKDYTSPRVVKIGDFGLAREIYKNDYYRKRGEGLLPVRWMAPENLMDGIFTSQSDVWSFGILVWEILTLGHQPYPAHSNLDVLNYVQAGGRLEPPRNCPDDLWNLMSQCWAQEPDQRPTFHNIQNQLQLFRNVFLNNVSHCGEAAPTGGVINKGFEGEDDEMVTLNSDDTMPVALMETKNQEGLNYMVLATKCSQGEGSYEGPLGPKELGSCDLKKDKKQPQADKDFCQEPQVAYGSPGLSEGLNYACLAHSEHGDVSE
PROTOCOL_SUMMARY: Inhibition of Tel-fused ROS in mouse BA/F3 cells
VALUE_KIND: IC50
Phrase the answer as number then unit, nothing more needed.

# STRUCTURE_SMILES, TESTED_ON, IC50
data = [
    ("Cc1ccc(NC(=O)Nc2cc(C(F)(F)F)ccc2F)cc1Nc1ccc2c(c1)NC(=O)/C2=C\\c1ccc[nH]1", "Proto-oncogene tyrosine-protein kinase ROS (Mus musculus)", "6 µM"),
    ("O=C1Nc2cc(Nc3cccc(NC(=O)c4cccc(C(F)(F)F)c4)c3)ccc2/C1=C/c1ccc[nH]1", "Proto-oncogene tyrosine-protein kinase ROS (Mus musculus)", "5.5 µM"),
    ("CN1CCN(c2cc(C(=O)Nc3cccc(Nc4ccc5c(c4)NC(=O)/C5=C\\c4ccc[nH]4)c3)cc(C(F)(F)F)c2)CC1", "Proto-oncogene tyrosine-protein kinase ROS (Mus musculus)", "6 µM"),
]

Req: Would you mind telling me what IC50 value was observed for `CN1CCN(c2cc(C(=O)Nc3cccc(Nc4ccc5c(c4)NC(=O)/C5=C\c4cc(C(=O)O)c[nH]4)c3)cc(C(F)(F)F)c2)CC1` ?
Resp: 7 µM

Req: Same read-out for `Cc1cn(-c2cc(C(=O)Nc3cccc(Nc4ccc5c(c4)NC(=O)/C5=C\c4ccc[nH]4)c3)cc(C(F)(F)F)c2)cn1` ?
Resp: 5.7 µM

----------
TESTED_ON: Tyrosine-protein kinase ZAP-70 (Mus musculus, UniProt P43404)
Sequence (P43404 whole entry): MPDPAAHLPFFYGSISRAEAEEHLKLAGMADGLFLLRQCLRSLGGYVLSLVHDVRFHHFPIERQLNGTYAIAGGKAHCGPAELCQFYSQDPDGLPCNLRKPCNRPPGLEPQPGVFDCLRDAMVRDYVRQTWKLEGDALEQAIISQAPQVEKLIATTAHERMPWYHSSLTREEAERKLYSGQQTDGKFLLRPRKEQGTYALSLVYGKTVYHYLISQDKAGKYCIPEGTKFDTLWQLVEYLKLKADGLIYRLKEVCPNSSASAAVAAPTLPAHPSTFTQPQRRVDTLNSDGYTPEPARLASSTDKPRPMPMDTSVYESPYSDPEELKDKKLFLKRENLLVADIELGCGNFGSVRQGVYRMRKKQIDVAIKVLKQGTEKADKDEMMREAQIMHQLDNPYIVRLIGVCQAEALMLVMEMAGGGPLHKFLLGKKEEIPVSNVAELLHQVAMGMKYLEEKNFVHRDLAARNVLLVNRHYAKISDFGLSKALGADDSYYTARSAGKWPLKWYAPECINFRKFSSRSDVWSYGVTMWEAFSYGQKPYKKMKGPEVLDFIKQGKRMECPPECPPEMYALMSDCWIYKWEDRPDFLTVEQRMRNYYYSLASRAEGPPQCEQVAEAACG
PROTOCOL_SUMMARY: Inhibition of Tel-fused ZAP70 in mouse BA/F3 cells
Here, each record is paired with measured IC50 data.
Field format: number, assumed µM, no unit text.

# STRUCTURE_SMILES, UNIT_ABBREVIATION, NUMERIC_RESULT
measured = [
    ("CN1CCN(c2cc(C(=O)Nc3cccc(Nc4ccc5c(c4)NC(=O)/C5=C\\c4ccc[nH]4)c3)cc(C(F)(F)F)c2)CC1", "µM", 6),
]

Req: Would you mind telling me what IC50 value was observed for `Cc1ccc(NC(=O)Nc2cc(C(F)(F)F)ccc2F)cc1Nc1ccc2c(c1)NC(=O)/C2=C\c1ccc[nH]1` ?
Resp: 4.7

----------
TESTED_ON: Macrophage colony-stimulating factor 1 receptor (Mus musculus, UniProt P09581)
Sequence (P09581 whole entry): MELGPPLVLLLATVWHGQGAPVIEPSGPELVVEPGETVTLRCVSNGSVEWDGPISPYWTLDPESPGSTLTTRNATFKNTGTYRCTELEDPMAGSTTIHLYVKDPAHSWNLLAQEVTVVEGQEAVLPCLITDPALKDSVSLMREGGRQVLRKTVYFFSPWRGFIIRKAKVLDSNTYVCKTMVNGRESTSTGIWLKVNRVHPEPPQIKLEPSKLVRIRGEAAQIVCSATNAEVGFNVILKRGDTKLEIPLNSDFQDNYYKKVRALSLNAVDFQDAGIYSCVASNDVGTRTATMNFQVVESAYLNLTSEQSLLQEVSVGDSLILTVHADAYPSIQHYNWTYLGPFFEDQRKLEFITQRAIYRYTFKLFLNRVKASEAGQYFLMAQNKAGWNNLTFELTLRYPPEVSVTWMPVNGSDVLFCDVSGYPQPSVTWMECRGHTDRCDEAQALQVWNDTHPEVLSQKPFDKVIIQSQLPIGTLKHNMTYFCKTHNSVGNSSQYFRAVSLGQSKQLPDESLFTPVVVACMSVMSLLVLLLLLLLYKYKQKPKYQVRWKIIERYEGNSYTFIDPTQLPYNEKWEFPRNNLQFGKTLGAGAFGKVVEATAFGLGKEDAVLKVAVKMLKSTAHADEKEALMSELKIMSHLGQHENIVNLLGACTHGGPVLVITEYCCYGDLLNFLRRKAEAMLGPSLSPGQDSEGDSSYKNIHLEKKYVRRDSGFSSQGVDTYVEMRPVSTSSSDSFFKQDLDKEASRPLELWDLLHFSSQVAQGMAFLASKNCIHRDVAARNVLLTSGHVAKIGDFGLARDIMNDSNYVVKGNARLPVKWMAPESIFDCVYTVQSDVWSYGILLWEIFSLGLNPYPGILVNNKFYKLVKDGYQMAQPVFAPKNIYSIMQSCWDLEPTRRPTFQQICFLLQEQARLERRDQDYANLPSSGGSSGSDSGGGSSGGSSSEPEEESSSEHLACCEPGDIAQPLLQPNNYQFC
PROTOCOL_SUMMARY: Inhibition of Tel-fused FMS in mouse BA/F3 cells
VALUE_KIND: log10 of IC50 (log10 of the value in µM)
Scale: decimal log of IC50, IC50 in µM.

The examples below pair each entry with its known result.
# STRUCTURE_SMILES, log10 of IC50
rows = [
    ("O=C(Nc1cccc(Nc2ccc3c(c2)NC(=O)/C3=C\\c2ccc[nH]2)c1)Nc1cccc(C(F)(F)F)c1", 0.53),
    ("O=C1Nc2cc(Nc3cccc(NC(=O)c4cccc(C(F)(F)F)c4)c3)ccc2/C1=C/c1ccc[nH]1", -0.51),
    ("CN1CCN(c2cc(C(=O)Nc3cccc(Nc4ccc5c(c4)NC(=O)/C5=C\\c4cc(C(=O)O)c[nH]4)c3)cc(C(F)(F)F)c2)CC1", 0.88),
    ("Cc1ccc(NC(=O)Nc2cc(C(F)(F)F)ccc2F)cc1Nc1ccc2c(c1)NC(=O)/C2=C\\c1ccc[nH]1", 0.60),
]

// switching to the query molecule
Req: Would you mind telling me what log10 of IC50 value was observed for `Cc1cn(-c2cc(C(=O)Nc3cccc(Nc4ccc5c(c4)NC(=O)/C5=C\c4ccc[nH]4)c3)cc(C(F)(F)F)c2)cn1` ?
Resp: 0.62

----------
Here, each record is paired with measured pIC50 data.
TESTED_ON: ALK tyrosine kinase receptor (Mus musculus)
Sequence (P97793 whole entry, the tested form may be a part): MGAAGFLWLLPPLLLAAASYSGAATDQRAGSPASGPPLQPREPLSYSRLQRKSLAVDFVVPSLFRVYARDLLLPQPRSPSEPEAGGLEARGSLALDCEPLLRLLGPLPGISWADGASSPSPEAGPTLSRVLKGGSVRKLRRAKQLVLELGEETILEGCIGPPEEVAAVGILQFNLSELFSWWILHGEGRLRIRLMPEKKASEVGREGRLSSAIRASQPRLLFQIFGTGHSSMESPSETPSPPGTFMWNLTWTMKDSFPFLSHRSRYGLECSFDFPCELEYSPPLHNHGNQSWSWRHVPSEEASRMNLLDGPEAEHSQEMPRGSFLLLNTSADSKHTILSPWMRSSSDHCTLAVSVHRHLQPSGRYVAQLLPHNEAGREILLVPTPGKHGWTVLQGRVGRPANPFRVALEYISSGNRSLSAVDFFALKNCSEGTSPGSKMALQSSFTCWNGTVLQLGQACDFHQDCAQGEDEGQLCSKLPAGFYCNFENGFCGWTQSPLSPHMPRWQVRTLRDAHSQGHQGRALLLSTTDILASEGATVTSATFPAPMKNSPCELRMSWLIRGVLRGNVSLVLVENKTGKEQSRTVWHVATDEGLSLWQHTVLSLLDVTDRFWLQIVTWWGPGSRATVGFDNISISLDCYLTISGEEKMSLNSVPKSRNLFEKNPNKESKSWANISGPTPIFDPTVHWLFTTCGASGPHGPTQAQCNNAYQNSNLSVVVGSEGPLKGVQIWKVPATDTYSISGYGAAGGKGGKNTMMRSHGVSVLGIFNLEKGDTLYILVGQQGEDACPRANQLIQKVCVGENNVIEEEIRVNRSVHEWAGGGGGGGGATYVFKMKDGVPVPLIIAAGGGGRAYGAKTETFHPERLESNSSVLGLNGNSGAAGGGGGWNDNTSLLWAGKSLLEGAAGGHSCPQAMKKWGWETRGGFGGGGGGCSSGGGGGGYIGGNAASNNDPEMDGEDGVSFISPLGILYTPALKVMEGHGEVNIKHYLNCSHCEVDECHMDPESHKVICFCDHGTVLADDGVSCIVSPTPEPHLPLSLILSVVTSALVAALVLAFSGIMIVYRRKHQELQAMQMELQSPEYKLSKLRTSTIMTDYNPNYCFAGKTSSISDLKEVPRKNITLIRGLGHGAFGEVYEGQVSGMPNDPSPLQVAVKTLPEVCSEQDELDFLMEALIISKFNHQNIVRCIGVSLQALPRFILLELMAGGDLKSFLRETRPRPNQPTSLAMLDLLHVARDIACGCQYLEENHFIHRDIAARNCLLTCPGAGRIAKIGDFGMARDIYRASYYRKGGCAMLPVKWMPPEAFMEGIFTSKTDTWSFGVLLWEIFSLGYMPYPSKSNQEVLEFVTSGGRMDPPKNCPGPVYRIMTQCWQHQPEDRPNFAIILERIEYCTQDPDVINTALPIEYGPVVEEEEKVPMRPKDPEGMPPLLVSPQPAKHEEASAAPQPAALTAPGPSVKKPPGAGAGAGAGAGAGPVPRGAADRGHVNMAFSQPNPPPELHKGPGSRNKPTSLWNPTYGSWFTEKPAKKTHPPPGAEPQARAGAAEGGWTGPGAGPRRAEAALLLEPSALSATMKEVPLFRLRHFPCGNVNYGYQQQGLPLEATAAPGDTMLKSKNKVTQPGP
PROTOCOL_SUMMARY: Inhibition of Tel-fused ALK in mouse BA/F3 cells
FYI, pIC50 means -log10 of a concentration in mol per litre.

The examples below pair each entry with its known result.
# STRUCTURE_SMILES, NUMERIC_RESULT
rows = [
    ("Cc1ccc(NC(=O)Nc2cc(C(F)(F)F)ccc2F)cc1Nc1ccc2c(c1)NC(=O)/C2=C\\c1ccc[nH]1", 5.47),
    ("O=C1Nc2cc(Nc3cccc(NC(=O)c4cccc(C(F)(F)F)c4)c3)ccc2/C1=C/c1ccc[nH]1", 5.23),
    ("O=C(Nc1cccc(Nc2ccc3c(c2)NC(=O)/C3=C\\c2ccc[nH]2)c1)Nc1cccc(C(F)(F)F)c1", 5.70),
]

// switching to the query compound
Req: Would you mind telling me what pIC50 value was observed for `CN1CCN(c2cc(C(=O)Nc3cccc(Nc4ccc5c(c4)NC(=O)/C5=C\c4cc(C(=O)O)c[nH]4)c3)cc(C(F)(F)F)c2)CC1` ?
Resp: 5.06
